System: HCC 2998
method-notes: NCI tumour cell line growth inhibition, 48 h
Calls of active or inactive are those of the source. No stated cut-off is given here; in the data, active = GI50 up to about 1.1 µM and inactive = higher.
Form field: GI50 (one value per entry).

compound	GI50
Nc1ccc2c(c1)N(C(=O)c1cc3cc(NC(=O)c4cc5ccccc5o4)ccc3[nH]1)CC2CCl (stereo not given)	0.0724 µM (active)
COc1cccc(C=O)c1[O-].COc1cccc(C=O)c1[O-].[Zn+2]	> 100 µM (inactive)
CCOC(=O)N(NC(=O)NC(C)C)c1ccccc1	84.1 µM (inactive)
C=C(c1ccccc1)[C@@]1(O)CC[C@@H]1N(CC#N)Cc1ccccc1	21.2 µM (inactive)
COC12CCCN1c1ccn(Cc3ccccc3)c(=O)c1C2=O (stereo not given)	> 100 µM (inactive)
CC1SC2=NC3=C(c4ccccc4C3=O)C(c3ccccc3Cl)N2C1=O (stereo not given)	> 100 µM (inactive)
CC(=O)OC1CC[C@]2(C)C3CC[C@@]4(C)C(CCC4[C@H](C)CCCC(C)C)[C@@H]3CCC2(Br)C1 (stereo not given in full)	> 50 µM (inactive)
N#CC(C#N)=C1CCC2C(=C(C#N)C#N)CCC12 (stereo not given)	> 100 µM (inactive)
CC(=O)OCC1OC(n2c(=O)n(-c3ccccc3)c(=O)c3ccccc32)C(OC(C)=O)C(OC(C)=O)C1OC(C)=O (stereo not given)	> 100 µM (inactive)
O=[N+]([O-])C(C(Cl)=C(Cl)Cl)=C(N(Cc1ccccc1)Cc1ccccc1)N(Cc1ccccc1)Cc1ccccc1	24 µM (inactive)
